Entries and their GI50 values follow.
# System: Colo205 colon cancer cell line
# Experiment Summary: MTT assay, 48 h continuous drug exposure, Colo205
# Type: cell-based, human
# Reported Conditions: Homo sapiens, COLO 205, 48 h exposure

As a guide, the following entries are already answered.
>  <Molecule>
COc1ccc(Oc2ccc(O)cc2N)cc1OC [5b, 3-amino-4-(3,4-dimethoxyphenoxy)phenol, reference compound]

>  <GI50>
> 50 µM

$$$$
>  <Molecule>
COc1ccc(Oc2ccc(C(=O)N3CCNCC3)cc2N)cc1OC [7b, reference compound]

>  <GI50>
> 50 µM

$$$$
>  <Molecule>
COc1cccc2c1C(=O)c1c(O)c3c(c(O)c1C2=O)C[C@@](O)(C(=O)CO)C[C@@H]3O[C@H]1C[C@H](N)[C@H](O)[C@H](C)O1 [ADR, adriamycin, reference compound]

>  <GI50>
< 0.1 µM

$$$$

Here is another molecule to look at.
Problem: What GI50 appears in the records for this molecule with Colo205 colon cancer cell line? C1=CC2=CN=c3ccccc3=CN2C1 [DC-81, pyrrolo[2,1-c][1,4]benzodiazepine, reference compound]
Solution: 0.11 µM

---

# Tested on: DWD oral cancer cell line
# Experiment Summary: MTT assay, 48 h continuous drug exposure, DWD
# Type: cell-based, human
# Reported Conditions: oral cancer cell line; 48 h exposure; MTT; read-out: GI50 DWD
Experimental Endpoint: GI50 (nM)
Numeric only. Scale: nM

As a guide, the following entries are already answered.
>  <Molecule>
COc1ccc(Oc2ccc(C(=O)N3CCN(CCCCCOc4cc5c(cc4OC)C(=O)N4CCC[C@H]4C=N5)CC3)cc2[N+](=O)[O-])cc1 [31c]

>  <Unit Abbrev>
nM

>  <Data Value>
180

$$$$
>  <Molecule>
COc1ccc(Oc2cc(OCCCCCOc3cc4c(cc3OC)C(=O)N3CCC[C@H]3C=N4)ccc2I)cc1OC [17g]

>  <Unit Abbrev>
nM

>  <Data Value>
180

$$$$
>  <Molecule>
COc1ccc(Oc2ccc(C(=O)N3CCN(CCCCCOc4cc5c(cc4OC)C(=O)N4CCC[C@H]4C=N5)CC3)cc2[N+](=O)[O-])cc1OC [32c]

>  <Unit Abbrev>
nM

>  <Data Value>
140

$$$$

Problem: # lookup: GI50 of COc1cc2c(cc1OCCCCCN1CCN(C(=O)c3ccc(Oc4cc(OC)c(OC)c(OC)c4)c([N+](=O)[O-])c3)CC1)N=C[C@@H]1CCCN1C2=O [33c]
Solution: 2100

---

# Test system: MCF7 breast cancer cell line
# Experiment Summary: MTT assay, 48 h continuous drug exposure, MCF7
# Assay type: cell-based, human
# Reported Conditions: 48 h exposure
Entries and their GI50 values follow.
Numeric only. Scale: nM

Problem: # lookup: GI50 of COc1cc2c(cc1OCCCCCN1CCN(C(=O)c3ccc(Oc4cc(OC)c(OC)c(OC)c4)c([N+](=O)[O-])c3)CC1)N=C[C@@H]1CCCN1C2=O [33c]
Solution: 180

Problem: # lookup: GI50 of COc1ccc(Oc2cc(OCCCCCOc3cc4c(cc3OC)C(=O)N3CCC[C@H]3C=N4)ccc2N)cc1 [10g]
Solution: 2300

Problem: # lookup: GI50 of COc1cc2c(cc1OCCCCCOc1cccc(Oc3cc(OC)c(OC)c(OC)c3)c1[N+](=O)[O-])N=C[C@@H]1CCCN1C2=O [21g]
Solution: 2300

Problem: # lookup: GI50 of COc1ccc(Oc2ccc(C(=O)N3CCN(CCCCCOc4cc5c(cc4OC)C(=O)N4CCC[C@H]4C=N5)CC3)cc2[N+](=O)[O-])cc1 [31c]
Solution: 180

---

# Tested on: ZR-751 breast cancer cell line
# Experiment Summary: MTT assay, 48 h continuous drug exposure, ZR-751
# Assay type: cell-based, human
# Reported Conditions: breast cancer cell line; 48 h exposure; MTT; read-out: GI50 ZR-751
Entries and their GI50 values follow.
Numeric only. Scale: nM

As a guide, the following entries are already answered.
>  <Molecule>
COc1cc2c(cc1OCCCCCN1CCN(C(=O)c3ccc(Oc4cc(OC)c(OC)c(OC)c4)c(N)c3)CC1)N=C[C@@H]1CCCN1C2=O [24c]

>  <Unit Abbrev>
nM

>  <GI50>
180

$$$$
>  <Molecule>
COc1cc2c(cc1OCCCCCOc1ccc(Oc3cc(OC)c(OC)c(OC)c3)c([N+](=O)[O-])c1)N=C[C@@H]1CCCN1C2=O [21c]

>  <Unit Abbrev>
nM

>  <GI50>
1600

$$$$

Problem: # lookup: GI50 of COc1cc2c(cc1OCCCCCOc1ccc(Oc3cc(OC)c(OC)c(OC)c3)c(I)c1)N=C[C@@H]1CCCN1C2=O [18c]
Solution: 2780

Problem: # lookup: GI50 of COc1ccc(Oc2cccc(OCCCCCOc3cc4c(cc3OC)C(=O)N3CCC[C@H]3C=N4)c2[N+](=O)[O-])cc1 [19g]
Solution: 2500

Problem: # lookup: GI50 of COc1ccc(Oc2cc(OCCCCCOc3cc4c(cc3OC)C(=O)N3CCC[C@H]3C=N4)ccc2N)cc1OC [11g]
Solution: 2500

Problem: # lookup: GI50 of COc1ccc(Oc2ccc(OCCCCCOc3cc4c(cc3OC)C(=O)N3CCC[C@H]3C=N4)cc2I)cc1 [16c]
Solution: 3300

Problem: # lookup: GI50 of COc1ccc(Oc2cc(OCCCCCOc3cc4c(cc3OC)C(=O)N3CCC[C@H]3C=N4)ccc2N)cc1 [10g]
Solution: 3100

Problem: # lookup: GI50 of COc1cc2c(cc1OCCCCCOc1ccc(N)c(Oc3cc(OC)c(OC)c(OC)c3)c1)N=C[C@@H]1CCCN1C2=O [12g]
Solution: 2100

Problem: # lookup: GI50 of COc1ccc(Oc2cc(OCCCCCOc3cc4c(cc3OC)C(=O)N3CCC[C@H]3C=N4)ccc2I)cc1OC [17g]
Solution: 1950

Problem: # lookup: GI50 of COc1ccc(Oc2ccc(C(=O)N3CCN(CCCCCOc4cc5c(cc4OC)C(=O)N4CCC[C@H]4C=N5)CC3)cc2[N+](=O)[O-])cc1OC [32c]
Solution: 150

Problem: # lookup: GI50 of COc1ccc(Oc2ccc(C(=O)N3CCN(CCCCCOc4cc5c(cc4OC)C(=O)N4CCC[C@H]4C=N5)CC3)cc2[N+](=O)[O-])cc1 [31c]
Solution: 180

Problem: # lookup: GI50 of COc1ccc(Oc2ccc(OCCCCCOc3cc4c(cc3OC)C(=O)N3CCC[C@H]3C=N4)cc2[N+](=O)[O-])cc1OC [20c]
Solution: 130
